Collected activity change, negative = inhibition values appear next to each entry.
# assay explanation: NFAT Signaling Pathway (AID 444);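 also: carbachol stimulus at about its EC50 of 1 µM final; % is scaled to controls: 0 for no effect and ±100 for the full control effect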
# run parameters: Jurkat NFAT-bla M1, carbachol, beta-lactamase ratio, 5 h; at 17.2 µM (top of the series)
Records with an inconclusive call do not appear.
measured parameter: activity change, negative = inhibition (%)

>>> observed_value("CN1[C@@H]2CC[C@H]1CC(O)C2 (stereo partly drawn)")
-15.4
>>> observed_value("C[C@H]1[C@@H](O)[C@@H](C)/C=C\\C=CCC\\C=C/C=C\\C=C/C=C[C@@H](O[C@H]2O[C@@H](C)[C@@H](O)[C@@H](N)[C@@H]2O)C[C@@H]2O[C@@](O)(C[C@@H](O)[C@H]2C(=O)O)C[C@@H](O)[C@@H](O)CC[C@@H](O)C[C@@H](O)C[C@@H](O)CC(=O)O[C@H]1C")
1.26
>>> observed_value("COc1ccc2c(c1OC)C(=O)O[C@H]2[C@H]1c2cc3c(cc2CCN1C)OCO3")
-1.79
